- Test system: MDA-MB-435
- test_description: Cytotoxicity against breast MDA-MB-435 cancer cell cultures.
- Format: functional
- particulars: Homo sapiens
Entries whose GI50 is below 0.4 µM take 1 (yes); entries at or above 0.4 µM take 0 (no).

{"columns": ["compound", "discrete_label"],
 "data": [
  ["COC(=O)CS[C@@H]1CC(=O)O[C@@H](C)CCC/C=C/[C@@H]2C[C@H](O)C[C@H]2[C@@H]1O", "0 (no)"],
  ["C[C@H]1CCC/C=C/[C@@H]2C[C@H](OC(=O)CCCC(=O)O)C[C@H]2[C@H](O)/C=C/C(=O)O1", "0 (no)"],
  ["C[C@H]1CCC/C=C/[C@@H]2C[C@H](O)C[C@H]2[C@H](O)[C@H](SCCO)CC(=O)O1", "0 (no)"],
  ["COC(=O)CS(=O)(=O)[C@@H]1CC(=O)O[C@@H](C)CCC/C=C/[C@@H]2C[C@H](O)C[C@H]2[C@@H]1O", "0 (no)"],
  ["C[C@H]1CCC/C=C/[C@@H]2C[C@H](O)C[C@H]2[C@H](O)[C@H]([S+]([O-])c2ccc(O)cc2)CC(=O)O1 (some centres not stated)", "1 (yes)"],
  ["C[C@H]1CCC/C=C/[C@@H]2C[C@H](O)C[C@H]2[C@H](O)[C@H]([S+]([O-])CCN)CC(=O)O1 (some centres not stated)", "1 (yes)"]
]}
